self-cleavage: recorded values
B1: LINE1-full (parent)
chain: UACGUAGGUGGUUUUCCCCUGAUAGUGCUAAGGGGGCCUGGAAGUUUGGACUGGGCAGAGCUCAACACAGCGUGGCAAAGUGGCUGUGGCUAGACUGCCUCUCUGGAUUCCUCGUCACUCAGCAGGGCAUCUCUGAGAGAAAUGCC

# Variants of: B1
# method.notes: self-cleavage, relative activity (ratio to wild type); higher = more cleavage; in vitro, sequencing; the parent is a self-cleaving ribozyme
Form rule: numeric answer, no unit written next to it.

// solved cases for self-cleavage follow
1. UACGUAGGUGGUUUUCCCCUGAUAGUGCUAAGGGGGCCUGGAAGUUUGGACUGGGCAGAGCUCAACACAGCGCGGCAAAGUGGCUGUGGCUAGACUGCCUCUCUGGAUUCCUCGUCGCUCAGCAGGGCAUCUCUGAGAGAAAUGCC [U73C A117G] :: 1.23
2. UACGUAGGUGGUUUUCCCCUGAUAGUGCCAAGGGGGCCUGGAAGUUUGGACUGGGCAGAGCUCAACACAGCGUGGCAAAGUGGCUGUGGCUAGACUGCCUCUCUGGAUUCCUCGUAACUCAGCAGGGCAUCUCUGAGAGAAAUGCC [U29C C116A] :: 1.16

## Input // query self-cleavage value for entry UACGUAGGUGGUUUUCCCCUGAUAGUGCUAAGGGGGCCUGGAAGUUUGGUCUGGGCAGAGCUCAACACAGCGUGGCAAAGUGGCUGUGGCUAGACUGCCUCACUGGAUUCCUCGUCACUCAGCAGGGCAUCUCUGAGAGAAAUGCC [A50U U102A]
## Output 1.63

## Input And UACGUAGGUGGUUUUCCCCUGAUAGUGCUAAGCGGGCCUGGAAGUAUGGACUGGGCAGAGCUCAACACAGCGUGGCAAAGUGGCUGUGGCUAGACUGCCUCUCUGGAUUCCUCGUCACUCAGCAGGGCAUCUCUGAGAGAAAUGCC [G33C U46A] ?
## Output 1.45

## Input And UACGUAGGUGGUUUUCCCCUGAUAGUGCAAAGGGGGCCUGGAAGUUUGGACUGGGCAGAGCACAACACAGCGUGGCAAAGUGGCUGUGGCUAGACUGCCUCUCUGGAUUCCUCGUCACUCAGCAGGGCAUCUCUGAGAGAAAUGCC [U29A U62A] ?
## Output 0

## Input And UACGUAGGUGGUUUUCCCCUGAUGGUGCUAAGGGGGCCUGGAAGUUUGGACUGGGCAGAGCUCAACACAGCGUGGCAAAGUGGCUGUGGCUAGACCGCCUCUCUGGAUUCCUCGUCACUCAGCAGGGCAUCUCUGAGAGAAAUGCC [A24G U96C] ?
## Output 0.31

## Input And UACGUAGGUGGUUUUCCCCUGAUAGUGCUAAGGGGGCCUGGAAGUUUGGACUGGGCAGAGCUCAACACAGCGUGGCAAAGUGGCUGUGGCUAGACCGCCUCUCUGGAUUCCUCGUCACUCAGCAGGGCAUCUUUGAGAGAAAUGCC [U96C C133U] ?
## Output 0.08

## Input And UACGUAGGUGGUGUUCCCCUGAUAGUGCUAAGGGGGCCUGGAAGUUUGGACUGGGCAGAGCUCAACACAGCGUGGCAAAGUGGCUGUGGCUAGACUGCCUCCCUGGAUUCCUCGUCACUCAGCAGGGCAUCUCUGAGAGAAAUGCC [U13G U102C] ?
## Output 0.66

## Input And UACGUAGGUGGUUUUCCCCUGAUAGUGCUAAGGGGGCCUGGAAGUUUGGACUGGGCAGAGCUCAACACAGCGUGGCAAAGUGGCUGUGGCUAGACUGCCUCUCUGGAUUCCUCGUCUCUCUGCAGGGCAUCUCUGAGAGAAAUGCC [A117U A121U] ?
## Output 1.57

## Input And UACGUAGGUGGUUUUCCCCUGAUAGUGCUAAAGGGGCCUGGAAGUUCGGACUGGGCAGAGCUCAACACAGCGUGGCAAAGUGGCUGUGGCUAGACUGCCUCUCUGGAUUCCUCGUCACUCAGCAGGGCAUCUCUGAGAGAAAUGCC [G32A U47C] ?
## Output 1.58

## Input And UACGUAGGUGGUUUUCCCCUGAUAGUGCUAAGGGGGCCUGGAGGUUUGGACUGGGCAGAGCUCACCACAGCGUGGCAAAGUGGCUGUGGCUAGACUGCCUCUCUGGAUUCCUCGUCACUCAGCAGGGCAUCUCUGAGAGAAAUGCC [A43G A65C] ?
## Output 0

## Input And UACGUAGGUGGUUUUCCCCUGAUAGUGCUGAGGGGGCCUGGAAGUUUGGACUGGGCAGAGCUCAACACAGCGUGGCAAAGUGGCUGUGGCUAGACUGCCUCUCUGGAUUCCUCGUCACUCAGCAGGGCAUCUCAGAGAGAAAUGCC [A30G U134A] ?
## Output 1.05

## Input And UACGUAGGUGGUUUUCCCCUGAUAGUGCUAAGGGGACCUGGAAGUUUGGACUGGGCAGAGCUCAACACAGCGUGGCAAAGUGGCUGUGGCUAGACUGCCCCUCUGGAUUCCUCGUCACUCAGCAGGGCAUCUCUGAGAGAAAUGCC [G36A U100C] ?
## Output 2.05

## Input And UACGUAGGUGGUUUUCCCCUGAUAGUGCUAAGGGGGCCUGGAAGUUUGGGCUGGACAGAGCUCAACACAGCGUGGCAAAGUGGCUGUGGCUAGACUGCCUCUCUGGAUUCCUCGUCACUCAGCAGGGCAUCUCUGAGAGAAAUGCC [A50G G55A] ?
## Output 0.15

## Input And UACGUAGGUGGUUUUCCCCUGAUAGUGCUAAGGGGGCCUGGAAGUUUGGACUGGGCAGAGCUCAACACAGCGUGGCAAAGUGGCUUUGGCUAGACUGCCCCUCUGGAUUCCUCGUCACUCAGCAGGGCAUCUCUGAGAGAAAUGCC [G86U U100C] ?
## Output 0.16

## Input And UACGUAGGUGGUUUUCCCCUGAUGGUGCUAAGGGGGCCUGGAAGUUUGGACUGGGCAGAGCUCAACACAGCGUGGCAAAGUGGCUGUGGCUAGACUGCCUCUCUGGAUUCCUCGUCACUCAGCAGGGCAUCUCUGAGAGAAAUGCU [A24G C146U] ?
## Output 1.61

## Input And UACGUAGGUGGUUUUCCCCUGAUAGUGCUAAGGGGGCCUGGAAGUUUGGACCGGGCAGAGCUCAACACAGCUUGGCAAAGUGGCUGUGGCUAGACUGCCUCUCUGGAUUCCUCGUCACUCAGCAGGGCAUCUCUGAGAGAAAUGCC [U52C G72U] ?
## Output 0.41

## Input And UACGUAGGUGGUUUUCCCCUGAUAGUGCUAAGGGGGCCUAGAAGUUUGGACUGGGCAGAGCUCAACACAGCGUGGCAAAGUGGCAGUGGCUAGACUGCCUCUCUGGAUUCCUCGUCACUCAGCAGGGCAUCUCUGAGAGAAAUGCC [G40A U85A] ?
## Output 0.02

## Input And UACGUAGGUGGUUUUCCCCUGAUAGUGCUAAGGGGGCCUGGAAGUUUGGACUGGGCAGAGCUCAACACCGCGUGGCAAAGUGGCUGUGGCUAGACUGCCUCUCUGGAUUCCUCGUCACUCAGCAGGGCAUCUCUGAGAGAACUGCC [A69C A142C] ?
## Output 0.13

## Input And UCCGUAGGUGGUUUUCCCCUGAUAGUGCUAAGGGGGCCUGGAAGUUUGGUCUGGGCAGAGCUCAACACAGCGUGGCAAAGUGGCUGUGGCUAGACUGCCUCUCUGGAUUCCUCGUCACUCAGCAGGGCAUCUCUGAGAGAAAUGCC [A2C A50U] ?
## Output 0.75

## Input And UACGUAGGUGGUUUCCCCCUGAUAGUGCUAAGGGGGCCUGGAAGUUUGGACUGGGCAGAGCGCAACACAGCGUGGCAAAGUGGCUGUGGCUAGACUGCCUCUCUGGAUUCCUCGUCACUCAGCAGGGCAUCUCUGAGAGAAAUGCC [U15C U62G] ?
## Output 0.15

## Input And UACGUAGGUGGUUUUCCCCUGAUAGUGCUAAGGGGGCCUGGAAGUUUGGACUGGGCAGAGCUCAACACAGCGUGGCAAAGUGGCUGUGGCUAGACUGCCUCUCUGGAUUCCUUGUCACUCAGCAGGGCAUCUCUGAGUGAAAUGCC [C113U A138U] ?
## Output 1.21

Just for reference, the RNAGym collection of RNA variant scans (doi:10.7554/elife.90254) is where these values come from.
